Test system: M1 macrophages and M2 macrophages differentiated from mouse bone marrow cells
Test: Subtype identification by staining and flow cytometry of M1 and M2 macrophages differentiated from mouse bone marrow cells
Assay type: cell-based, Balb/c mouse
Settings: M1 vs M2 macrophages from mouse bone marrow cells; general formula (11) dyes (Table 9)
quantity-kind: Resolution ratio R
I'd appreciate a reply containing only the number, no unit.

- compound: "Cc1cc(C)n2c1C=C1C=CC(CCC(=O)O)=[N+]1[B-]2(F)F"
  tgt: "M1 macrophages and M2 macrophages differentiated from mouse bone marrow cells"
  Resolution ratio R: 0.637

// Resolution ratio R value for CC1=CC(C)=[N+]2C1=C(c1ccccc1)c1c(C)cc(C)n1[B-]2(F)F : 0.193

// Resolution ratio R value for CCC1=C(CC)c2cc3[nH]c(cc4nc(cc5[nH]c(cc1n2)c(CC)c5CC)C(CC)=C4CC)c(CC)c3CC [(1), reference compound] : 0.006

// Resolution ratio R value for COC(=O)COc1ccc(/C=C/C2=[N+]3C(=Cc4ccc(-c5cccs5)n4[B-]3(F)F)C=C2)cc1 : 0.582

====

Tested on: M1 macrophages and M2 macrophages differentiated from mouse bone marrow cells
Experiment: Subtype identification by staining and flow cytometry of M1 and M2 macrophages differentiated from mouse bone marrow cells
Assay type: cell-based, Balb/c mouse
Conditions: fluorescence intensity at peak top of histogram; compound 1 μM, 37° C., 30 minutes
Catalogue of compounds with associated Peak position of M1 macrophage
I'd appreciate a reply containing only the number, no unit.

- compound: "CCC1=C(CC)c2cc3[nH]c(cc4nc(cc5[nH]c(cc1n2)c(CC)c5CC)C(CC)=C4CC)c(CC)c3CC [(1), reference compound]"
  Peak position of M1 macrophage: 1.70
- compound: "O=C(O)Cn1c(=O)/c(=C\\c2ccc3c(c2)C2CCCC2N3Cc2ccccc2)s/c1=C1/SC(=S)N(Cc2ccccc2)C1=O (stereo not shown)"
  Peak position of M1 macrophage: 128
- compound: "CCOC(=O)CN1C(=O)/C(=C\\c2ccc3c(c2)C2CCCC2N3c2ccc(OC)cc2)SC1=S (stereo not shown)"
  Peak position of M1 macrophage: 40.0
- compound: "CCOC(=O)CN1C(=O)/C(=C\\c2ccc3c(c2)C2CCCC2N3c2ccccc2)SC1=S (stereo not shown)"
  Peak position of M1 macrophage: 65.4
- compound: "COc1ccc2cc(N3c4ccc(/C=C5\\C(=O)N(c6ccc(C(=O)O)cc6)N=C5C)cc4C4CCCC43)ccc2c1 (stereo not shown)"
  Peak position of M1 macrophage: 5.70

// Peak position of M1 macrophage value for O=C(O)CCC(C(=O)O)N1C(=O)/C(=C\c2ccc3c(c2)C2CCCC2N3c2ccccc2)SC1=S (stereo not shown) : 1.10

// Peak position of M1 macrophage value for CCCN1c2ccc(/C=C3/SC(=S)N(CCC(=O)O)C3=O)cc2C2CCCC21 (stereo not shown) : 2.63

// Peak position of M1 macrophage value for CCOC(=O)CN1C(=O)/C(=C\c2ccc3c(c2)C2CCCC2N3c2ccc(C=C(c3ccccc3)c3ccccc3)cc2)SC1=S (stereo not shown) : 0.90

// Peak position of M1 macrophage value for N#C/C(=C\C=C\c1ccc2c(c1)C1CCCC1N2c1ccc(C=C(c2ccccc2)c2ccccc2)cc1)C(=O)O (stereo not shown) : 2.52

// Peak position of M1 macrophage value for CCOC(=O)Cn1c(=O)/c(=C\c2ccc3c(c2)C2CCCC2N3c2ccc(OC)cc2)s/c1=C1/SC(=O)N(CC)C1=O (stereo not shown) : 18.2

// Peak position of M1 macrophage value for COC(=O)C(C)N1C(=O)/C(=C\c2ccc3c(c2)C2CCCC2N3c2ccc(OC)cc2)SC1=S (stereo not shown) : 65.4

// Peak position of M1 macrophage value for CCN1C(=O)/C(=c2\s/c(=C/c3ccc4c(c3)CC(C)N4CC)c(=O)n2CC(=O)O)SC1=S (stereo not shown) : 4.20

// Peak position of M1 macrophage value for COc1ccc(N2c3ccc(/C=c4/s/c(=C5/SC(=S)N(Cc6ccccc6)C5=O)n(CC(=O)O)c4=O)cc3C3CCCC32)cc1 (stereo not shown) : 154
